Origin of values: patent US12539298B2

Exercise: for every item that follows, state its recorded pIC50.
- system_under_test: UniProt P23977
- assay_summary: [3H]DA uptake into rat striatal synaptosomes
- Assay type: biochemical
- Set-up: from tissue; host or cells: rat striatum (synaptosomes; homogenate)
- applied_conditions: compound added 15 min before [3H]DA, 30 min at 37° C, read-out: IC50, inhibition of [3H]-DA uptake
One number for each entry, as −log10 of the molar value.

Past entries and their recorded results:
>>> measured_result("C[N+]1([O-])CCCC2C(c3ccccc3)C(C3=[N+]([O-])CCCC3)C(c3ccccc3)CC21 (stereo not drawn) [lobinaline bi-N-oxide]")
5.92
>>> measured_result("CN1CCCC2C(c3ccccc3)C(C3=NCCCC3)C(c3ccccc3)CC21 (stereo not drawn)")
6.44

Query: Need pIC50, item C[N+]1([O-])CCCC2C(c3ccccc3)C(C3=NCCCC3)C(c3ccccc3)CC21 (stereo not drawn) [lobinaline N-oxide, lobinaline mono-N-oxide]
Result: 6.29

* * *

- system_under_test: DAT (Rattus norvegicus)
- Sequence (P23977 whole entry): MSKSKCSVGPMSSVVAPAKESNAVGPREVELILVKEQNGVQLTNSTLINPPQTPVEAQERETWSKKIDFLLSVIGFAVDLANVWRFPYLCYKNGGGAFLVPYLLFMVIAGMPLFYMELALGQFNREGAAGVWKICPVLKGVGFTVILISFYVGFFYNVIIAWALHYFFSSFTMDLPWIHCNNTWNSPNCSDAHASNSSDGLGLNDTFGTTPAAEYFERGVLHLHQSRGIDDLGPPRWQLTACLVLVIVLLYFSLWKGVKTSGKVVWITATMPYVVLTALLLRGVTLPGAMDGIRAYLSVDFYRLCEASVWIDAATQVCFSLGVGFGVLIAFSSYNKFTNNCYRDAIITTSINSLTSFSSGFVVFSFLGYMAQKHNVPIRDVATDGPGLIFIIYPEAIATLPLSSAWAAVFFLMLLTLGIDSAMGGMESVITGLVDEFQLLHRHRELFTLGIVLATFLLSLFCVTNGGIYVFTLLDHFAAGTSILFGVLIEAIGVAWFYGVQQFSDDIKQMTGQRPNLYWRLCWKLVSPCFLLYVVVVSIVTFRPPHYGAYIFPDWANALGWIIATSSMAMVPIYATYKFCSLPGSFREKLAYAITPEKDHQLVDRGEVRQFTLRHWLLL
experimental_readout: pKi
Give bare numbers, as −log10 of the molar value.

Query: Form field: reported pKi of CN1CCCC2C(c3ccccc3)C(C3=NCCCC3)C(c3ccccc3)CC21 (stereo not shown)
Result: 5.60

* * *

- system_under_test: alpha4/beta2 nicAChR (Rattus norvegicus, UniProt P09483+P12390)
- Sequence (P09483 31-630): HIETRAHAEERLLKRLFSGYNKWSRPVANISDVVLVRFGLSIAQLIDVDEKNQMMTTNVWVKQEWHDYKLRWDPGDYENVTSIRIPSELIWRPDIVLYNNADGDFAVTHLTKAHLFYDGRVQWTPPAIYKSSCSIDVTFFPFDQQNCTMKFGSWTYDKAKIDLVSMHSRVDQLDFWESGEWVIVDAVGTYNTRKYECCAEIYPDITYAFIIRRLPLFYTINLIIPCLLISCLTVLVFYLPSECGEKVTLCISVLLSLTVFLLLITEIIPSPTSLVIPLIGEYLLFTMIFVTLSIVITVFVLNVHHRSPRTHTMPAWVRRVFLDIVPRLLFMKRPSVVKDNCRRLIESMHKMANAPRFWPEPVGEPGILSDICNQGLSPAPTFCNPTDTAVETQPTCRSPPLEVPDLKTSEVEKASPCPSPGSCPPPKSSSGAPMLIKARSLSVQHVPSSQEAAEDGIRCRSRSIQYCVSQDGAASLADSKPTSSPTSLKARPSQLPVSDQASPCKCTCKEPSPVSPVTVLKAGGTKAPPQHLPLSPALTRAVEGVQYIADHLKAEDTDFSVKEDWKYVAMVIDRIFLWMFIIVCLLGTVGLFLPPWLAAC
- Sequence (P12390 25-500): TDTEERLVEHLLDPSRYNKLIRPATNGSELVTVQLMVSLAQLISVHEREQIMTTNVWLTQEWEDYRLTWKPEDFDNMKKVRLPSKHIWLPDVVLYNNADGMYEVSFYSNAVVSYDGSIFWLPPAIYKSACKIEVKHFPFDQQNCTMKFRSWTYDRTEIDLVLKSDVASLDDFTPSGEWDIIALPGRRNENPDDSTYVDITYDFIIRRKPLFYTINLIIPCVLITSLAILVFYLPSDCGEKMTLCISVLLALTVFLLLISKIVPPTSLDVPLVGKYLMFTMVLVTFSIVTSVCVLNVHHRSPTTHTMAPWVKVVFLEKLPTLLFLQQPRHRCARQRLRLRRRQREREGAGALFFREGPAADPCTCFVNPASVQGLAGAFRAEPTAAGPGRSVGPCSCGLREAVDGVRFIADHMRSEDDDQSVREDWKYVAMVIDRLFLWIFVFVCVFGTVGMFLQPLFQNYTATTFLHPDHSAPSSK
- assay_summary: displacement of beta2-selective radioligand [3H]cytisine
experimental_readout: Ki (nM)
Numbers only, in nM.

Query: I'd like to know its Ki. The compound in question is CN1CCCC2C(c3ccccc3)C(C3=NCCCC3)C(c3ccccc3)CC21 (stereo not shown)
Result: 1100
